Measured IC50, in vitro kinase assay PKB, listed per entry for reference.
- target: protein kinase B (PKB)
- protocolNotes: cell-based or functional assay
Square brackets hold non-standard residues; d marks the D form. * marks the point of attachment. Cholesteryloxycarbonyl = CC(C)CCC[C@@H](C)[C@H]1CC[C@H]2[C@@H]3CC=C4C[C@@H](OC(=O)*)CC[C@]4(C)[C@H]3CC[C@]12C; hLeu = CC(C)CC[C@H](N)C(=O)O; Nva = CCC[C@H](N)C(=O)O; Dap = NC[C@H](N)C(=O)O; GABA = NCCCC(=O)O
observationType: IC50, in vitro kinase assay PKB (µM)

binder: Cholesteryloxycarbonyl-[GABA]RPR[Nva]Y[Dap][hLeu]-NH2 (SMILES CCC[C@H](NC(=O)[C@H](CCCNC(=N)N)NC(=O)[C@@H]1CCCN1C(=O)[C@H](CCCNC(=N)N)NC(=O)CCCNC(=O)O[C@H]1CC[C@@]2(C)C(=CC[C@H]3[C@@H]4CC[C@H]([C@H](C)CCCC(C)C)[C@@]4(C)CC[C@@H]32)C1)C(=O)N[C@@H](Cc1ccc(O)cc1)C(=O)N[C@@H](CN)C(=O)N[C@@H](CCC(C)C)C(N)=O) [PTR 6298]
observationType: IC50, in vitro kinase assay PKB
observedResult: 2

binder: Cholesteryloxycarbonyl-KKKRPR[Nva]Y[Dap][hLeu]-OH (SMILES CCC[C@H](NC(=O)[C@H](CCCNC(=N)N)NC(=O)[C@@H]1CCCN1C(=O)[C@H](CCCNC(=N)N)NC(=O)[C@H](CCCCN)NC(=O)[C@H](CCCCN)NC(=O)[C@H](CCCCN)NC(=O)O[C@H]1CC[C@@]2(C)C(=CC[C@H]3[C@@H]4CC[C@H]([C@H](C)CCCC(C)C)[C@@]4(C)CC[C@@H]32)C1)C(=O)N[C@@H](Cc1ccc(O)cc1)C(=O)N[C@@H](CN)C(=O)N[C@@H](CCC(C)C)C(=O)O) [PTR 6352]
observationType: IC50, in vitro kinase assay PKB
observedResult: 0.2

src = patent US20070078092A1
